- SUBJECT_OF_TEST: UniProt Q9NWZ3
- ASSAY_COMMENT: IRAK4 MSD degradation in OCI-LY10
- Type: cell-based
- REPORTED_CONDITIONS: OCI-LY10, 4 hrs, MSD; read-out: IRAK4 MSD degradation in OCI-LY10 at 4 hrs: Average external-Abs DC50
// DC50 lookup, one value per entry
OUTCOME_MEASURE: DC50

>>> observed_measurement("CN(C[C@H]1CN(Cc2cccc3c2n(C)c(=O)n3C2CCC(=O)NC2=O)CCO1)C[C@H]1CC[C@H](n2cc(NC(=O)c3coc(-c4ccnc(NCC5CC5)c4)n3)c(C(F)F)n2)CC1 (stereo partly shown)")
"10 to 100 nM"
>>> observed_measurement("CN1C(=O)CCC(n2c(=O)n(C)c3c(CN4CCC(N(C)C[C@H]5CC[C@H](n6cc(NC(=O)c7coc(-c8ccnc(NCC9CC9)c8)n7)c(C(F)F)n6)CC5)CC4)cccc32)C1=O (stereo partly shown)")
"100 to 1000 nM"
>>> observed_measurement("Cn1c(=O)n(C2CCC(=O)NC2=O)c2cccc(CCCN3CCC4(CC3)CN(C(=O)[C@H]3CC[C@H](n5cc(NC(=O)c6cnn7ccc(N8C[C@H]9C[C@@H]8CO9)nc67)c(C(F)F)n5)CC3)C4)c21 (stereo partly shown)")
"10 to 100 nM"
>>> observed_measurement("Cn1c(=O)n(C2CCC(=O)NC2=O)c2ccc(CN3CCC(CC(=O)N4CCC(n5cc(NC(=O)c6coc(-c7ccnc(NCC8CC8)c7)n6)c(C(F)F)n5)CC4)CC3)cc21 (stereo not shown)")
"100 to 1000 nM"
>>> observed_measurement("Cc1ccc(-n2nc(C3CCN(CCCCCOCCCc4ccc5c(c4)n(C)c(=O)n5C4CCC(=O)NC4=O)CC3)cc2NC(=O)c2cnn3cccnc23)nc1 (stereo not shown)")
"> 1000 nM"
>>> observed_measurement("O=C1CCC(N2C(=O)c3cccc(NCCCOC4CCN(C[C@H]5CC[C@H](n6cc(NC(=O)c7cnn8ccc(N9C%10COCC9C%10)nc78)c(C(F)F)n6)CC5)CC4)c3C2=O)C(=O)N1 (stereo partly shown)")
"100 to 1000 nM"
>>> observed_measurement("CN(CCC1CCN(c2cccc3c2C(=O)N(C2CCC(=O)NC2=O)C3=O)CC1)C[C@H]1CC[C@H](n2cc(NC(=O)C3CNN4C=CC(N5CCOCC5)=NC34)c(C(F)F)n2)CC1 (stereo partly shown)")
"10 to 100 nM"
>>> observed_measurement("Cn1c(=O)n(C2CCC(=O)NC2=O)c2cccc(CCCOCCOCCNC(=O)[C@H]3CC[C@H](n4cc(NC(=O)c5coc(-c6ccnc(NCC7CC7)c6)n5)c(C(F)F)n4)CC3)c21 (stereo partly shown)")
"< 10 nM"
>>> observed_measurement("Cn1c(=O)n(C2CCC(=O)NC2=O)c2cccc(CCCOC3CCN(C[C@H]4CC[C@H](n5cc(NC(=O)c6cnn7ccc(N[C@@H]8CCCC(F)(F)[C@@H]8N)nc67)c(C(F)F)n5)CC4)CC3)c21 (stereo partly shown)")
"100 to 1000 nM"
>>> observed_measurement("Cn1c(=O)n(C2CCC(=O)NC2=O)c2cccc(CCCOC3CCN(C[C@H]4CC[C@H](n5cc(NC(=O)c6cnn7ccc(N8C(=O)N[C@@H]9[C@H]8CCCC9(F)F)nc67)c(C(F)F)n5)CC4)CC3)c21 (stereo partly shown)")
"10 to 100 nM"

###

- SUBJECT_OF_TEST: IRAK4 (Homo sapiens (Human))
- Sequence (Q9NWZ3 whole entry): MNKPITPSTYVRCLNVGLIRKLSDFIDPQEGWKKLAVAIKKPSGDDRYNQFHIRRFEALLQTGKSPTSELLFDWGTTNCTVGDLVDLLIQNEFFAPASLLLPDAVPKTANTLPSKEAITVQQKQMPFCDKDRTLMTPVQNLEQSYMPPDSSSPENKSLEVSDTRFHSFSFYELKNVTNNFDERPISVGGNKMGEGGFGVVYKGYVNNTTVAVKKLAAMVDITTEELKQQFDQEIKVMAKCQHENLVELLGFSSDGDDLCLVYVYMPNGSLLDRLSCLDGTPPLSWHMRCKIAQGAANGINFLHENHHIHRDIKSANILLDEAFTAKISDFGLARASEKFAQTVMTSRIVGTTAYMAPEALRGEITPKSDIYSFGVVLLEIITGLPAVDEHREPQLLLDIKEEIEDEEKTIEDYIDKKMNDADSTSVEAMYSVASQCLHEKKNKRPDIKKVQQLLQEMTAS
- ASSAY_COMMENT: IRAK4 MSD degradation in OCI-LY10
- Type: cell-based
- REPORTED_CONDITIONS: OCI-LY10, 24 hrs; read-out: IRAK4 MSD degradation in OCI-LY10 at 24 hrs: DC50
OUTCOME_MEASURE: DC50

>>> observed_measurement("O=C1CCC(N2C(=O)c3cccc(NCC(=O)N4CC5(CCN(C[C@H]6CC[C@H](n7cc(NC(=O)c8cnn9ccc(N%10CCOCC%10)nc89)c(C(F)F)n7)CC6)CC5)C4)c3C2=O)C(=O)N1 (some centres unmarked) [I-443]")
"< 10 nM"
>>> observed_measurement("O=C1CCC(N2C(=O)c3ccc(NCC4CC5(CCN(C[C@H]6CC[C@H](n7cc(NC(=O)c8cnn9ccc(N%10C[C@H]%11C[C@@H]%10CO%11)nc89)c(C(F)F)n7)CC6)CC5)C4)cc3C2=O)C(=O)N1 (some centres unmarked) [I-556]")
"< 10 nM"
>>> observed_measurement("CN(C[C@H]1CC[C@H](n2cc(NC(=O)c3cnn4ccc(N5CCOCC5)nc34)c(C(F)F)n2)CC1)[C@H]1C[C@H](Nc2cccc3c2C(=O)N(C2CCC(=O)NC2=O)C3=O)C1 (some centres unmarked) [I-458]")
"> 1000 nM"
>>> observed_measurement("CN(C(=O)c1cnn2ccc(N3CCOCC3)nc12)c1cn([C@H]2CC[C@H](CN3CCC(OCCCNc4cccc5c4C(=O)N(C4CCC(=O)NC4=O)C5=O)CC3)CC2)nc1C(F)F (some centres unmarked) [I-501]")
"> 1000 nM"
>>> observed_measurement("CN(CC1CCC(n2cc(NC(=O)c3cnn4ccc(N5C[C@H]6C[C@@H]5CO6)nc34)c(C(F)F)n2)CC1)[C@H]1C[C@H](Nc2cccc3c2C(=O)N(C2CCC(=O)NC2=O)C3=O)C1 (some centres unmarked) [I-457]")
"> 1000 nM"

###

- SUBJECT_OF_TEST: IRAK4 (Homo sapiens (Human))
- ASSAY_COMMENT: IRAK4 MSD degradation in OCI-LY10
- Type: cell-based
- REPORTED_CONDITIONS: OCI-LY10, 4 hrs, MSD; read-out: IRAK4 MSD degradation in OCI-LY10 at 4 hrs: Average external-Abs DC50
OUTCOME_MEASURE: DC50

>>> observed_measurement("CN(C[C@H]1CC[C@H](n2cc(NC(=O)c3cnn4ccc(N5C[C@H]6C[C@@H]5CO6)nc34)c(C(F)F)n2)CC1)C1CCN(CCNc2cccc3c2C(=O)N(C2CCC(=O)NC2=O)C3=O)CC1 (stereo partly drawn)")
"0.01 to 0.1 µM"
>>> observed_measurement("Cn1c(=O)n(C2CCC(=O)NC2=O)c2ccc(CCCOC3CCN(C[C@H]4CC[C@H](n5cc(NC(=O)c6coc(-c7ccnc(NCC8CC8)c7)n6)c(C(F)F)n5)CC4)CC3)cc21 (stereo partly drawn)")
"< 0.01 µM"
>>> observed_measurement("Cn1c(=O)n(C2CCC(=O)NC2=O)c2ccc(CCCOCCCCCN3CCC(n4cc(NC(=O)c5coc(-c6ccnc(NCC7CC7)c6)n5)c(C(F)F)n4)CC3)cc21 (stereo not drawn)")
"< 0.01 µM"

###

- SUBJECT_OF_TEST: IRAK4 (Homo sapiens (Human))
- ASSAY_COMMENT: IRAK4 MSD degradation in OCI-LY10
- Assay type: cell-based
- REPORTED_CONDITIONS: OCI-LY10, 24 hrs, MSD; read-out: IRAK4 MSD degradation in OCI-LY10 at 24 hrs: Average external-Abs DC50
OUTCOME_MEASURE: DC50

>>> observed_measurement("CN(Cc1ccc(CCNc2cccc3c2C(=O)N(C2CCC(=O)NC2=O)C3=O)cc1)C[C@H]1CC[C@H](n2cc(NC(=O)c3cnn4ccc(N5C[C@H]6C[C@@H]5CO6)nc34)c(C(F)F)n2)CC1 (some centres unmarked)")
"10 to 100 nM"
>>> observed_measurement("Cn1c(=O)n(C2CCC(=O)NC2=O)c2cccc(CCCOCCCCCN3CCC(n4cc(NC(=O)c5coc(-c6ccnc(NCC7CC7)c6)n5)c(C(F)F)n4)CC3)c21 (centres unmarked)")
"< 10 nM"
>>> observed_measurement("Cn1c(=O)n(C2CCC(=O)NC2=O)c2ccc(CCCOCCCCCN3CCC(n4cc(NC(=O)c5coc(-c6ccnc(NCC7CC7)c6)n5)c(C(F)F)n4)CC3)cc21 (centres unmarked)")
"< 10 nM"
>>> observed_measurement("CC(C)(O)c1cc2nn([C@H]3CC[C@H](CN4CCC5(CC4)CC(Nc4cccc6c4C(=O)N(C4CCC(=O)NC4=O)C6=O)C5)CC3)cc2cc1NC(=O)c1cccc(C(F)(F)F)n1 (some centres unmarked)")
"< 10 nM"
>>> observed_measurement("CN(CCCN1CCO[C@@H](CNc2cccc3c2C(=O)N(C2CCC(=O)NC2=O)C3=O)C1)C[C@H]1CC[C@H](n2cc(NC(=O)c3cnn4ccc(N5C[C@H]6C[C@@H]5CO6)nc34)c(C(F)F)n2)CC1 (some centres unmarked)")
"10 to 100 nM"
>>> observed_measurement("CN(CCN1CCO[C@@H](CCNc2cccc3c2C(=O)N(C2CCC(=O)NC2=O)C3=O)C1)C[C@H]1CC[C@H](n2cc(NC(=O)c3coc(-c4ccnc(NCC5CC5)c4)n3)c(C(F)F)n2)CC1 (some centres unmarked)")
"10 to 100 nM"
>>> observed_measurement("CN(CCCOCCCN)C[C@H]1CC[C@H](n2cc(NC(=O)c3cnn4ccc(N5CCOCC5)nc34)c(C(F)F)n2)CC1")
"> 1000 nM"
>>> observed_measurement("COc1cc(C(=O)NCCOCCOCCN(C)C[C@H]2CC[C@H](n3cc(NC(=O)c4coc(-c5ccnc(NCC6CC6)c5)n4)c(C(F)F)n3)CC2)ccc1NC(=O)[C@@H]1N[C@@H](CC(C)(C)C)[C@](C#N)(c2ccc(Cl)cc2F)[C@H]1c1cccc(Cl)c1F")
"> 1000 nM"
>>> observed_measurement("CN(CCCc1ccc(CNc2cccc3c2C(=O)N(C2CCC(=O)NC2=O)C3=O)cc1)C[C@H]1CC[C@H](n2cc(NC(=O)c3cnn4ccc(N5C[C@H]6C[C@@H]5CO6)nc34)c(C(F)F)n2)CC1 (some centres unmarked)")
"10 to 100 nM"
>>> observed_measurement("CC[C@@H]1[C@H](F)C(=O)N[C@@H]1COc1ncc(C#C[C@H]2CC[C@H](CN3CCC(OCCNc4cccc5c4C(=O)N(C4CCC(=O)NC4=O)C5=O)CC3)CC2)c2cc(C(N)=O)c(OC)cc12 (some centres unmarked)")
"10 to 100 nM"
>>> observed_measurement("CC[C@@H]1[C@H](F)C(=O)N[C@@H]1COc1ncc(C#CC2CCN(CCCC3CCN(Cc4ccc5c(c4)n(C)c(=O)n5C4CCC(=O)NC4=O)CC3)CC2)c2cc(C(N)=O)c(OC)cc12 (some centres unmarked)")
"10 to 100 nM"
>>> observed_measurement("CN(CC1CCN(c2cccc3c2C(=O)N(C2CCC(=O)NC2=O)C3=O)CC1)C[C@H]1CC[C@H](n2cc(NC(=O)c3cnn4ccc(N5CCOCC5)nc34)c(C(F)F)n2)CC1 (some centres unmarked)")
"100 to 1000 nM"
>>> observed_measurement("CC[C@@H]1CC(=O)N[C@@H]1COc1ncc(C#CC2CCN(CCCOCCCc3cccc4c3n(C)c(=O)n4C3CCC(=O)NC3=O)CC2)c2cc(C(N)=O)c(OC)cc12 (some centres unmarked)")
"100 to 1000 nM"
>>> observed_measurement("Cn1c(=O)n(C2CCC(=O)NC2=O)c2cccc(CCCOCCCN3CCN([C@H]4CC[C@H](Nc5ncnc6ccc(CC#N)cc56)CC4)CC3)c21 (some centres unmarked)")
"> 1000 nM"
>>> observed_measurement("CN(CCCOCCCNc1cccc2c1C(=O)N(C1CCC(=O)NC1=O)C2=O)C[C@H]1CC[C@H](n2cc(NC(=O)c3coc(-c4ccnc(N5CCOCC5)c4)n3)c(C(F)F)n2)CC1 (some centres unmarked)")
"100 to 1000 nM"
>>> observed_measurement("O=C1CCC(N2Cc3c(NCCCOC4CCN(C[C@H]5CC[C@H](n6cc(NC(=O)c7cnn8ccc(N9CCOCC9)nc78)c(C(F)F)n6)CC5)CC4)cccc3C2=O)C(=O)N1 (some centres unmarked)")
"< 10 nM"
>>> observed_measurement("CN(CCCCCCCNC(=O)c1ccc(CNCc2ccc(-c3ccc4c(cnn4CC4CC4)c3)cc2)cc1)C[C@H]1CC[C@H](n2cc(NC(=O)c3coc(-c4ccnc(NCC5CC5)c4)n3)c(C(F)F)n2)CC1")
"> 1000 nM"
>>> observed_measurement("Cn1c(=O)n(C2CCC(=O)NC2=O)c2ccc(CCCCOCCCCNCC(=O)N3CCN([C@H]4CC[C@H](Nc5ncnc6[nH]cc(C7CCOCC7)c56)CC4)CC3)cc21 (some centres unmarked)")
"< 10 nM"
>>> observed_measurement("Cc1ccc(-n2nc(C3CCN(CCCCCOCCCc4cccc5c4n(C)c(=O)n5C4CCC(=O)NC4=O)CC3)cc2NC(=O)c2cnn3cccnc23)nc1 (centres unmarked)")
"> 1000 nM"
>>> observed_measurement("CC[C@@H]1CC(=O)N[C@@H]1COc1ncc(C#C[C@H]2CC[C@H](CN3CCC(OCCCc4cccc5c4n(C)c(=O)n5C4CCC(=O)NC4=O)CC3)CC2)c2cc(C(N)=O)c(OC)cc12 (some centres unmarked)")
"10 to 100 nM"

This collection of values is drawn from patent US11352350B2.
